Would you kindly list DC50 for each of these compounds?
Target: IRAK4 (Homo sapiens (Human), UniProt Q9NWZ3)
Sequence (Q9NWZ3 whole entry): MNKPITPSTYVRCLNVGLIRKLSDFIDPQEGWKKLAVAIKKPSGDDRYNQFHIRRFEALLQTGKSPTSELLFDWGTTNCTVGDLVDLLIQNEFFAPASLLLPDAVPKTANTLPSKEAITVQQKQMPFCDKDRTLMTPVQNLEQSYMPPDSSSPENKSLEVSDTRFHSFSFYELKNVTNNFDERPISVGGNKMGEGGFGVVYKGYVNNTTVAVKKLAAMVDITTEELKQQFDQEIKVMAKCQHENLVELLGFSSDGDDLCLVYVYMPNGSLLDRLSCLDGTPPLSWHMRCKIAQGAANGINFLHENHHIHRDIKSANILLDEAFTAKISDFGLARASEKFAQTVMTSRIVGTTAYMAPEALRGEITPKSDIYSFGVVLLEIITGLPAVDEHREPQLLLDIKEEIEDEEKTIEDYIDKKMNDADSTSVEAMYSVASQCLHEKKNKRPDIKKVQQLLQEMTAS
Test: IRAK4 MSD degradation in OCI-LY10
Assay type: cell-based
Conditions: OCI-LY10, 4 hrs, MSD; read-out: IRAK4 MSD degradation in OCI-LY10 at 4 hrs: Average external-Abs DC50

Request the reported DC50 associated with O=C1CCC(N2C(=O)c3cccc(CCCOC4CCN(C[C@H]5CC[C@H](n6cc(NC(=O)c7coc(-c8ccnc(NCC9CC9)c8)n7)c(C(F)F)n6)CC5)CC4)c3C2=O)C(=O)N1 (stereo partly drawn)
10 to 100 nM

Request the reported DC50 associated with O=C1CCC(N2C(=O)c3cccc(N4CCC(CCCN5CCC(n6cc(NC(=O)c7cnn8ccc(N[C@@H]9CCCC[C@@H]9O)nc78)c(C(F)F)n6)CC5)CC4)c3C2=O)C(=O)N1 (stereo partly drawn)
100 to 1000 nM

Request the reported DC50 associated with O=C1CCC(N2C(=O)c3cccc(OCCCOC4CCN(C[C@H]5CC[C@H](n6cc(NC(=O)c7cnn8ccc(N9CCOCC9)nc78)c(C(F)F)n6)CC5)CC4)c3C2=O)C(=O)N1 (stereo partly drawn) [I-297]
10 to 100 nM

---

Would you kindly list DC50 for each of these molecules?
Biological target: UniProt:Q9NWZ3
Assay: IRAK4 MSD degradation in OCI-LY10
Assay type: cell-based
Settings: OCI-LY10, 4 hrs, MSD; read-out: IRAK4 MSD degradation in OCI-LY10 at 4 hrs: Average external-Abs DC50

Request the reported DC50 associated with CC[C@@H]1[C@H](F)C(=O)N[C@@H]1COc1ncc(C#C[C@H]2CC[C@H](CN(C)C3CCN(Cc4ccc5c(c4)n(C)c(=O)n5C4CCC(=O)NC4=O)CC3)CC2)c2cc(C(N)=O)c(OC)cc12 (stereo partly shown) [I-190]
100 to 1000 nM

Request the reported DC50 associated with C[C@@H]1CN(c2ccn3ncc(C(=O)Nc4cn([C@H]5CC[C@H](CN6CCC(OCCCc7cccc8c7n(C)c(=O)n8C7CCC(=O)NC7=O)CC6)CC5)nc4C(F)F)c3n2)C[C@@H](C)O1 (stereo partly shown) [I-276]
< 10 nM

Request the reported DC50 associated with O=C1CCC(N2C[C@H](c3ccc(C#CCN4CCO[C@@H](CNC[C@H]5CC[C@H](n6cc(NC(=O)c7coc(-c8ccnc(NCC9CC9)c8)n7)c(C(F)F)n6)CC5)C4)cc3)OC2=O)C(=O)N1 (stereo partly shown) [I-40]
10 to 100 nM

Request the reported DC50 associated with CC[C@@H]1[C@H](F)C(=O)N[C@@H]1COc1ncc(C#C[C@H]2CC[C@H](CN3CCC(OCCC#Cc4ccc([C@H]5CN(C6CCC(=O)NC6=O)C(=O)O5)cc4)CC3)CC2)c2cc(C(N)=O)c(OC)cc12 (stereo partly shown) [I-206]
10 to 100 nM

Request the reported DC50 associated with O=C1CCC(N2C(=O)c3cccc(NCCCCOC4CCN(C[C@H]5CC[C@H](n6cc(NC(=O)c7coc(-c8ccnc(NCC9CC9)c8)n7)c(C(F)F)n6)CC5)CC4)c3C2=O)C(=O)N1 (stereo partly shown) [I-170]
10 to 100 nM

Request the reported DC50 associated with O=C1CCC(N2C(=O)c3cccc(NCCCOC4CCN(C[C@H]5CC[C@H](n6cc(NC(=O)c7cnn8ccc(N9CCOCC9)nc78)c(C(F)F)n6)CC5)CC4)c3C2=O)C(=O)N1 (stereo partly shown) [I-208]
10 to 100 nM

Request the reported DC50 associated with O=C1CCC(N2C(=O)c3cccc(NCCCOC[C@H]4CC[C@H](n5cc(NC(=O)c6cnn7ccc(N8C[C@H]9C[C@@H]8CO9)nc67)c(C(F)F)n5)CC4)c3C2=O)C(=O)N1 (stereo partly shown) [I-375]
> 1000 nM

Request the reported DC50 associated with CN1C(=O)CCC(N2C(=O)c3cccc(NCC4CC5(CCN(C[C@H]6CC[C@H](n7cc(NC(=O)c8cnn9ccc(N%10C[C@H]%11C[C@@H]%10CO%11)nc89)c(C(F)F)n7)CC6)CC5)C4)c3C2=O)C1=O (stereo partly shown) [I-323]
100 to 1000 nM

Request the reported DC50 associated with O=C1CCC(N2C(=O)c3cccc(NCCc4ccc(CNC[C@H]5CC[C@H](n6cc(NC(=O)c7cnn8ccc(N9C[C@H]%10C[C@@H]9CO%10)nc78)c(C(F)F)n6)CC5)cc4)c3C2=O)C(=O)N1 (stereo partly shown) [I-351]
> 1000 nM

Request the reported DC50 associated with NC(=O)c1nn([C@H]2CC[C@H](CNCCCOCCCc3cccc4c3oc(=O)n4C3CCC(=O)NC3=O)CC2)cc1NC(=O)c1coc(-c2ccnc(NCC(F)(F)F)c2)n1 (stereo partly shown) [I-12]
10 to 100 nM

---

Molecular target: IRAK4 (Homo sapiens (Human), UniProt Q9NWZ3)
Assay: IRAK4 MSD degradation in OCI-LY10
Assay type: cell-based
Details: OCI-LY10, 24 hrs, MSD; read-out: IRAK4 MSD degradation in OCI-LY10 at 24 hrs: Average external-Abs DC50
Protocol: Degradation of IRAK4 in OCI-LY10 was quantitatively measured using Meso Scale Discovery technology. […] Compounds were then added to the assay plates with a final top concentration of 1 to 10 μM in a 1:3 dilution series with total of 8 doses. […] The assay plates were then incubated at room temperature for 1 hour, washed 3 times with 150 μL/well TB ST buffer, and 150 μL/well MSD reading buffer (Meso Scale Discovery catalog number R92TC-2) was added. […]
Measure name: DC50

Request the reported DC50 associated with CN1CCN(c2ccn3ncc(C(=O)Nc4cn([C@H]5CC[C@H](CN6CCC(OCCCc7cccc8c7n(C)c(=O)n8C7CCC(=O)NC7=O)CC6)CC5)nc4C(F)F)c3c2)CC1 (some centres unmarked)
10 to 100 nM

Request the reported DC50 associated with NC[C@H]1CC[C@H](n2cc(NC(=O)c3cnn4ccc(N5CCOCC5)nc34)c(C(F)F)n2)CC1
> 1000 nM

Request the reported DC50 associated with Cn1c(=O)n(C2CCC(=O)NC2=O)c2cccc(CCCOC3CCN([C@H]4CC[C@H](Nc5ncnc6ccc(C#N)cc56)CC4)CC3)c21 (some centres unmarked)
> 1000 nM

Request the reported DC50 associated with CC[C@@H]1[C@H](F)C(=O)N[C@@H]1COc1ncc(C#C[C@H]2CC[C@H](CN3CCC(OCCC#Cc4ccc([C@H]5CN(C6CCC(=O)NC6=O)C(=O)O5)cc4)CC3)CC2)c2cc(C(N)=O)c(OC)cc12 (some centres unmarked)
10 to 100 nM

Request the reported DC50 associated with O=C1CCC(N2C(=O)c3cccc(NCCCOC[C@@H]4CN(C[C@H]5CC[C@H](n6cc(NC(=O)c7cnn8ccc(N9C[C@H]%10C[C@@H]9CO%10)nc78)c(C(F)F)n6)CC5)CCO4)c3C2=O)C(=O)N1 (some centres unmarked)
10 to 100 nM

Request the reported DC50 associated with CN[C@@H](C)C(=O)N[C@H](C(=O)N1Cc2cc(OCCOCCOCCNC[C@H]3CC[C@H](n4cc(NC(=O)c5coc(-c6ccnc(NCC7CC7)c6)n5)c(C(F)F)n4)CC3)ccc2C[C@H]1C(=O)N[C@@H]1CCCc2ccccc21)C(C)(C)C
> 1000 nM

Request the reported DC50 associated with CN(CCCNc1cccc2c1C(=O)N(C1CCC(=O)NC1=O)C2=O)C1CCN(C(=O)[C@H]2CC[C@H](n3cc(NC(=O)c4cnn5ccc(C6C[C@H]7C[C@@H]6CO7)nc45)c(C(F)F)n3)CC2)CC1 (some centres unmarked)
10 to 100 nM

Request the reported DC50 associated with O=C1CCC(N2C(=O)c3cccc(NC4CCN(C[C@H]5CC[C@H](n6cc(NC(=O)c7cnn8ccc(N9CCOCC9)nc78)c(C(F)F)n6)CC5)CC4)c3C2=O)C(=O)N1 (some centres unmarked)
100 to 1000 nM

Request the reported DC50 associated with CN(CCCOCCNc1cccc2c1C(=O)N(C1CCC(=O)NC1=O)C2=O)C[C@H]1CC[C@H](n2cc(NC(=O)c3coc(-c4ccnc(NCC5CC5)c4)n3)c(C(F)F)n2)CC1 (some centres unmarked)
< 10 nM

Request the reported DC50 associated with CC[C@@H]1CC(=O)N[C@@H]1COc1ncc(C#C[C@H]2CC[C@H](CN(C)CCCOCCCc3cccc4c3n(C)c(=O)n4C3CCC(=O)NC3=O)CC2)c2cc(C(N)=O)c(OC)cc12 (some centres unmarked)
10 to 100 nM

Request the reported DC50 associated with O=C(Nc1cn([C@H]2CC[C@H](CNC[C@H]3CC[C@H](n4cc(NC(=O)c5cnn6ccc(N7CCOCC7)nc56)c(C(F)F)n4)CC3)CC2)nc1C(F)F)c1cnn2ccc(N3CCOCC3)nc12
> 1000 nM

Request the reported DC50 associated with CN(CCCOCCCc1ccc2c(c1)c1cccnc1n2C1CCC(=O)NC1=O)C[C@H]1CC[C@H](n2cc(NC(=O)c3coc(-c4ccnc(NCC5CC5)c4)n3)c(C(F)F)n2)CC1 (some centres unmarked)
10 to 100 nM

Request the reported DC50 associated with CN(CCN1CCO[C@@H](CCNc2cccc3c2C(=O)N(C2CCC(=O)NC2=O)C3=O)C1)C[C@H]1CC[C@H](n2cc(NC(=O)c3cnn4ccc(N5C[C@H]6C[C@@H]5CO6)nc34)c(C(F)F)n2)CC1 (some centres unmarked)
10 to 100 nM

Request the reported DC50 associated with O=C1CCC(N2C(=O)c3cccc(NCCc4ccc(C5CCN(C[C@H]6CC[C@H](n7cc(NC(=O)c8cnn9ccc(N%10C[C@H]%11C[C@@H]%10CO%11)nc89)c(C(F)F)n7)CC6)CC5)cc4)c3C2=O)C(=O)N1 (some centres unmarked)
10 to 100 nM

Request the reported DC50 associated with CN(CCCOCCCNc1cccc2c1C(=O)N(C1CCC(=O)NC1=O)C2=O)Cc1ccc(-n2cc(NC(=O)c3coc(-c4ccnc(NCC5CC5)c4)n3)c(C(F)F)n2)cc1 (centres unmarked)
10 to 100 nM

Request the reported DC50 associated with Cn1c(=O)n(C2CCC(=O)NC2=O)c2ccc(CN3CCC(CCC(=O)N4CCC(n5cc(NC(=O)c6coc(-c7ccnc(NCC8CC8)c7)n6)c(C(F)F)n5)CC4)CC3)cc21 (centres unmarked)
< 10 nM

Request the reported DC50 associated with CC[C@@H]1[C@H](F)C(=O)N[C@@H]1COc1ncc(C#C[C@H]2CC[C@H](CN3CCC(OCCCc4ccc5c(c4)n(C)c(=O)n5C4CCC(=O)NC4=O)CC3)CC2)c2cc(C(N)=O)c(OC)cc12 (some centres unmarked)
< 10 nM

Request the reported DC50 associated with CC(C)(O)c1cc2nn([C@H]3CC[C@H](CN4CCC(COCCCNc5cccc6c5C(=O)N(C5CCC(=O)NC5=O)C6=O)CC4)CC3)cc2cc1NC(=O)c1cccc(C(F)(F)F)n1 (some centres unmarked)
10 to 100 nM

Request the reported DC50 associated with CN[C@@H](C)C(=O)N[C@H](C(=O)N1CCC[C@H]1c1nc(C(=O)c2cccc(OCCOCCOCCOCCOCCNC[C@H]3CC[C@H](n4cc(NC(=O)c5coc(-c6ccnc(NCC7CC7)c6)n5)c(C(F)F)n4)CC3)c2)cs1)C1CCCCC1
100 to 1000 nM

Request the reported DC50 associated with CC(C)(O)c1nn([C@H]2CC[C@H](CN3CCC(OCCNc4cccc5c4C(=O)N(C4CCC(=O)NC4=O)C5=O)CC3)CC2)cc1NC(=O)c1cnn2ccc(N3CCOCC3)nc12 (some centres unmarked)
> 1000 nM
